Reported IC50 values, EGFR (UniProt P00533).
Metric Name: IC50

Compound: CC1CCc2ccccc2N1c1ncnc(N2c3ccccc3CCC2C)n1 (stereo not given)
Metric Name: IC50
Result: 2.4 to 3.5 µg/mL
--
Compound: COC(=O)c1sccc1Nc1ncnc(Nc2cc(OC)c(OC)c(OC)c2)n1
Metric Name: IC50
Result: > 4.5 µg/mL
--
Compound: COc1cc(Nc2ncnc(-n3ccnc3)n2)cc(OC)c1OC
Metric Name: IC50
Result: > 4.5 µg/mL
--
Compound: COc1cc(Nc2ncnc(-n3c(NC(=O)c4ccccc4)nc4ccccc43)n2)cc(OC)c1OC
Metric Name: IC50
Result: > 4.5 µg/mL
--
Compound: COc1cc(Nc2ncnc(-n3c(OCc4ccccn4)nc4ccccc43)n2)cc(OC)c1OC
Metric Name: IC50
Result: > 4.5 µg/mL
--
Compound: COc1cccc(Nc2ncnc(Nc3ccc(OCc4ccccc4)cc3)n2)c1
Metric Name: IC50
Result: 0.4 to 2.4 µg/mL
--
Compound: COc1ccc(N(C)c2ncnc(-n3c(N)nc4ccccc43)n2)cc1
Metric Name: IC50
Result: > 4.5 µg/mL
--
Compound: O=C(O)Cc1cccc(Nc2ncnc(-c3cccnc3Nc3ccccc3)n2)c1
Metric Name: IC50
Result: 0.4 to 2.4 µg/mL
--
Compound: COC(=O)c1ccc(-c2cc(Nc3ncnc(Nc4cc(Cl)cc(Cl)c4)n3)[nH]n2)cc1
Metric Name: IC50
Result: > 4.5 µg/mL
--
Compound: COc1cc(Nc2ncnc(-n3c(NCc4ccccn4)nc4ccccc43)n2)cc(OC)c1OCCN1CCOCC1
Metric Name: IC50
Result: > 4.5 µg/mL

====

Reported IC50 values, EGFR (UniProt P00533).
Metric Name: IC50

Compound: COc1cc(Nc2ncnc(Nc3ccccc3)n2)cc(OC)c1OC
Target: EGFR (UniProt P00533)
Sequence (P00533 whole entry, looked up): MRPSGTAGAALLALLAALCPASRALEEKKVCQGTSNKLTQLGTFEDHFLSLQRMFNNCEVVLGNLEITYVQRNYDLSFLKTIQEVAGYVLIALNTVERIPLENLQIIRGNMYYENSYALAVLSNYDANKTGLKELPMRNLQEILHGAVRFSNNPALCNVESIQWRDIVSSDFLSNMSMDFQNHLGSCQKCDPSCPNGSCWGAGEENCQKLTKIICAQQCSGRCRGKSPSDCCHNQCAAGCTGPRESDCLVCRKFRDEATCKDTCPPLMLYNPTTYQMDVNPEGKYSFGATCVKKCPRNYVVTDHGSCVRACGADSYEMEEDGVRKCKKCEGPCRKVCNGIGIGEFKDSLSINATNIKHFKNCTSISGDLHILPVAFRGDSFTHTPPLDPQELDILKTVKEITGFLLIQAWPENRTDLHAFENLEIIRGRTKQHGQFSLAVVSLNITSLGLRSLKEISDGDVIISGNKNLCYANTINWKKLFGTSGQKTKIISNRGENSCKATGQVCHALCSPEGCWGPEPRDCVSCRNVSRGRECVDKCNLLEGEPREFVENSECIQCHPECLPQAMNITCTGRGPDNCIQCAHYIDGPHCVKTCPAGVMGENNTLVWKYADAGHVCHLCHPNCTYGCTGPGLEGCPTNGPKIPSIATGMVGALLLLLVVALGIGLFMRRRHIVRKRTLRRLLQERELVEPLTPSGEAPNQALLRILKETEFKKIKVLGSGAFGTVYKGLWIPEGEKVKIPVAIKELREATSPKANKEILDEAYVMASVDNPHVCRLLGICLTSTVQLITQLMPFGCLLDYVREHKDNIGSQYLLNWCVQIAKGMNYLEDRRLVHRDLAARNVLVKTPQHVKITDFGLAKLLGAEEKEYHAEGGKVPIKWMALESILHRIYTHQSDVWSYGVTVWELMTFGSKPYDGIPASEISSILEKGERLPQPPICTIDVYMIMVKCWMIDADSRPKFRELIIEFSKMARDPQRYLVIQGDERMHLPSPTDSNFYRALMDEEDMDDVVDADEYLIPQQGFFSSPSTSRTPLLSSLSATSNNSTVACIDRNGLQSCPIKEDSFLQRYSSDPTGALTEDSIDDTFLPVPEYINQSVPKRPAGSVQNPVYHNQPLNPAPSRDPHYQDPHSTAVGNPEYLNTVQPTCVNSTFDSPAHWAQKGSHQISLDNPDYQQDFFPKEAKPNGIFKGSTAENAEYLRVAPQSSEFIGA
Metric Name: IC50
Result: 0.4 to 2.4 µg/mL
//
Compound: C#Cc1cccc(Nc2ncnc(Nc3cc(-c4ccccc4)n[nH]3)n2)c1
Target: EGFR (UniProt P00533)
Metric Name: IC50
Result: 0.4 to 2.4 µg/mL
//
Compound: COc1cc(Nc2ncnc(-n3cccc3)n2)cc(OC)c1OC
Target: EGFR (UniProt P00533)
Metric Name: IC50
Result: > 4.5 µg/mL
//
Compound: COc1cc(Nc2ncnc(NC3CC3c3ccccc3)n2)cc(OC)c1OC (stereo not given)
Target: EGFR (UniProt P00533)
Metric Name: IC50
Result: < 0.4 µg/mL
//
Compound: Nc1ncnc(Nc2ccc3c(c2)OCO3)n1
Target: EGFR (UniProt P00533)
Metric Name: IC50
Result: 3.5 to 4.5 µg/mL
//
Compound: COc1cc(Nc2ncnc(-n3c(NCc4ccc(F)cc4Cl)nc4ccccc43)n2)cc(OC)c1OC
Target: EGFR (UniProt P00533)
Metric Name: IC50
Result: 3.5 to 4.5 µg/mL
//
Compound: COc1cc(Nc2ncnc(-c3cccnc3NC3CCCc4ccccc43)n2)cc(OC)c1OC (stereo not given)
Target: EGFR (UniProt P00533)
Metric Name: IC50
Result: 3.5 to 4.5 µg/mL
//
Compound: COc1ccc(Nc2ncnc(Nc3ccc(N4CCCCC4)cc3)n2)cc1OC
Target: EGFR (UniProt P00533)
Metric Name: IC50
Result: 0.4 to 2.4 µg/mL
//
Compound: COc1cc(Nc2ncnc(-n3c(NCc4nc5ccccc5[nH]4)nc4ccccc43)n2)cc(OC)c1OC
Target: EGFR (UniProt P00533)
Metric Name: IC50
Result: > 4.5 µg/mL
//
Compound: Cc1ccc(Nc2ncnc(N)n2)cc1
Target: EGFR (UniProt P00533)
Metric Name: IC50
Result: > 4.5 µg/mL
//
Compound: COc1ccc(Nc2ncnc(Nc3cccc(C)c3)n2)cc1OC
Target: EGFR (UniProt P00533)
Metric Name: IC50
Result: < 0.4 µg/mL
//
Compound: COc1cc(OC)nc(Nc2ncnc(-n3c(=O)[nH]c4ccccc43)n2)n1
Target: EGFR (UniProt P00533)
Metric Name: IC50
Result: > 4.5 µg/mL
//
Compound: COc1cc(Nc2ncnc(NC3CC3c3ccccc3)n2)cc(OC)c1OCCN1CCOCC1 (stereo not given)
Target: EGFR (UniProt P00533)
Metric Name: IC50
Result: < 0.4 µg/mL
//
Compound: c1cc(Cn2ccnn2)cc(Nc2ncnc(-n3c(Nc4ccc5[nH]ccc5c4)nc4ccccc43)n2)c1
Target: EGFR (UniProt P00533)
Metric Name: IC50
Result: 2.4 to 3.5 µg/mL
//
Compound: COc1ccc(CNc2nc3cc(OC)ccc3n2-c2ncnc(Nc3cc(OC)c(OC)c(OC)c3)n2)cc1.COc1ccc(CNc2nc3ccc(OC)cc3n2-c2ncnc(Nc3cc(OC)c(OC)c(OC)c3)n2)cc1
Target: EGFR (UniProt P00533)
Metric Name: IC50
Result: > 4.5 µg/mL
//
Compound: COc1cc(Nc2ncnc(-c3cccnc3NC(C)C)n2)cc(OC)c1OC
Target: EGFR (UniProt P00533)
Metric Name: IC50
Result: > 4.5 µg/mL
//
Compound: COc1cc(Nc2ncnc(-n3c(NCc4ccccc4Cl)nc4ccccc43)n2)cc(OC)c1OC
Target: EGFR (UniProt P00533)
Metric Name: IC50
Result: > 4.5 µg/mL
//
Compound: COc1cc(Nc2ncnc(-n3c(NCc4ccccc4F)nc4ccccc43)n2)cc(OC)c1OC
Target: EGFR (UniProt P00533)
Metric Name: IC50
Result: > 4.5 µg/mL
//
Compound: COc1cc(Nc2ncnc(Nc3[nH]ncc3-c3cccc(Cl)c3)n2)cc(OC)c1OC
Target: EGFR (UniProt P00533)
Metric Name: IC50
Result: > 4.5 µg/mL
//
Compound: COc1ccc(Nc2ncnc(Nc3ccc(N(C)C)cc3)n2)cc1OC
Target: EGFR (UniProt P00533)
Metric Name: IC50
Result: > 4.5 µg/mL
//
Compound: COc1cc(Nc2ncnc(-n3cc(OC(C)=O)c4ccccc43)n2)cc(OC)c1OC
Target: EGFR (UniProt P00533)
Metric Name: IC50
Result: > 4.5 µg/mL
//
Compound: COCCOc1ccc(Nc2ncnc(Nc3ccc4[nH]ccc4c3)n2)cc1OCCOC
Target: EGFR (UniProt P00533)
Metric Name: IC50
Result: < 0.4 µg/mL
//
Compound: COc1cc(Nc2ncnc(-n3c(NC(CO)c4ccccc4)nc4ccccc43)n2)cc(OC)c1OC (stereo not given)
Target: EGFR (UniProt P00533)
Metric Name: IC50
Result: > 4.5 µg/mL
//
Compound: COc1cc(Nc2ncnc(-n3c(NCc4ccc(Cl)cc4)nc4ccccc43)n2)cc(OC)c1OC
Target: EGFR (UniProt P00533)
Metric Name: IC50
Result: > 4.5 µg/mL
//
Compound: CCCN(CC1CC1)c1ncnc(Nc2cc(OC)c(OC)c(OC)c2)n1
Target: EGFR (UniProt P00533)
Metric Name: IC50
Result: 3.5 to 4.5 µg/mL
//
Compound: COc1cc(Br)ccc1Nc1nc2ccccc2n1-c1ncnc(Nc2cc(OC)c(OC)c(OC)c2)n1
Target: EGFR (UniProt P00533)
Metric Name: IC50
Result: > 4.5 µg/mL
//
Compound: COC(=O)c1cccc(Nc2ncnc(-n3c(NCc4ccc(OC)cc4)nc4ccccc43)n2)c1
Target: EGFR (UniProt P00533)
Metric Name: IC50
Result: > 4.5 µg/mL
//
Compound: CCN(CC)CCOc1ccc(Nc2ncnc(Nc3cc(OC)c(OC)c(OC)c3)n2)cc1OC
Target: EGFR (UniProt P00533)
Metric Name: IC50
Result: 0.4 to 2.4 µg/mL
//
Compound: COc1cc(Nc2ncnc(Cc3ccc4c(cnn4Cc4ccccc4)c3)n2)cc(OC)c1OCCN1CCOCC1
Target: EGFR (UniProt P00533)
Metric Name: IC50
Result: < 0.4 µg/mL
//
Compound: COc1cc(Nc2ncnc(-n3c(NCC(C)C)nc4ccccc43)n2)cc(OC)c1OC
Target: EGFR (UniProt P00533)
Metric Name: IC50
Result: > 4.5 µg/mL
//
Compound: CC(=O)c1ccc(Nc2ncnc(Nc3ccc4c(cnn4Cc4ccccc4)c3)n2)cc1
Target: EGFR (UniProt P00533)
Metric Name: IC50
Result: < 0.4 µg/mL
//
Compound: COC(=O)c1ccc(-c2cc(Nc3ncnc(Nc4cccc(C(N)=O)c4)n3)[nH]n2)cc1
Target: EGFR (UniProt P00533)
Metric Name: IC50
Result: > 4.5 µg/mL
//
Compound: c1ccc(CNc2ncccc2-c2ncnc(Nc3cccc(Cn4ccnn4)c3)n2)cc1
Target: EGFR (UniProt P00533)
Metric Name: IC50
Result: 0.4 to 2.4 µg/mL
//
Compound: COc1cc(Nc2ncnc(-c3cccnc3Nc3cccc4c3CCCC4)n2)cc(OC)c1OC
Target: EGFR (UniProt P00533)
Metric Name: IC50
Result: > 4.5 µg/mL
//
Compound: COC(=O)Cc1cccc(Nc2ncnc(-n3c(NCc4ccc(OC)cc4)nc4ccccc43)n2)c1
Target: EGFR (UniProt P00533)
Metric Name: IC50
Result: > 4.5 µg/mL
//
Compound: COc1cc(Nc2ncnc(N(CCO)c3ccccc3)n2)cc(OC)c1OC
Target: EGFR (UniProt P00533)
Metric Name: IC50
Result: < 0.4 µg/mL
//
Compound: COc1ccccc1Nc1ncnc(-c2ccccc2)n1
Target: EGFR (UniProt P00533)
Metric Name: IC50
Result: > 4.5 µg/mL
//
Compound: COC(=O)c1ccc(-c2cc(Nc3ncnc(NCc4ccco4)n3)[nH]n2)cc1
Target: EGFR (UniProt P00533)
Metric Name: IC50
Result: > 4.5 µg/mL
//
Compound: COc1cc(Nc2ncnc(Nc3cccc4ccccc34)n2)cc(OCCN2CCOCC2)c1OC
Target: EGFR (UniProt P00533)
Metric Name: IC50
Result: < 0.4 µg/mL
//
Compound: CCN(CC)CCN(C)c1ncnc(Nc2ccc(OC)c(OC)c2)n1
Target: EGFR (UniProt P00533)
Metric Name: IC50
Result: > 4.5 µg/mL
